# TARGET_DESC: Integrin alpha-5/beta-1 (Homo sapiens, UniProt P05556+P08648)
# Sequence (P05556 21-798 limits assumed): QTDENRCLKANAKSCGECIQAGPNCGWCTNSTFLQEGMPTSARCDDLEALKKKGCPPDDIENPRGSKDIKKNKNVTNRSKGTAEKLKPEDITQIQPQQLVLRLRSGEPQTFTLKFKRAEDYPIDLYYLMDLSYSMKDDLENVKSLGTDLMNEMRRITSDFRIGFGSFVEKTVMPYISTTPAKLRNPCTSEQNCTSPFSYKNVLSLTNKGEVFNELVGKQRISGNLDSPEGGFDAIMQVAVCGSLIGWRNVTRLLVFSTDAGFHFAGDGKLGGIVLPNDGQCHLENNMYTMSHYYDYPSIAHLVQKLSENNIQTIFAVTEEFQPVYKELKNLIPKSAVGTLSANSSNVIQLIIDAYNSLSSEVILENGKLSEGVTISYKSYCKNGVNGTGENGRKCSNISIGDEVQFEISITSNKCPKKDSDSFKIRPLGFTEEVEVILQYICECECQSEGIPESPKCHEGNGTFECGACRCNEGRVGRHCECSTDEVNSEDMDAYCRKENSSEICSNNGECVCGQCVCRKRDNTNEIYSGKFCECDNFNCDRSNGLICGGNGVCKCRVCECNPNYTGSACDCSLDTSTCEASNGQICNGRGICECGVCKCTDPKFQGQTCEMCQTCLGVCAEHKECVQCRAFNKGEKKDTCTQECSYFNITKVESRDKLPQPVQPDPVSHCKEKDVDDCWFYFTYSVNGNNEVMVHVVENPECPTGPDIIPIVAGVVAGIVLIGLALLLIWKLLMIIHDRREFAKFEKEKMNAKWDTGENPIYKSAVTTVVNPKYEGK
# Sequence (P08648 42-894 limits assumed): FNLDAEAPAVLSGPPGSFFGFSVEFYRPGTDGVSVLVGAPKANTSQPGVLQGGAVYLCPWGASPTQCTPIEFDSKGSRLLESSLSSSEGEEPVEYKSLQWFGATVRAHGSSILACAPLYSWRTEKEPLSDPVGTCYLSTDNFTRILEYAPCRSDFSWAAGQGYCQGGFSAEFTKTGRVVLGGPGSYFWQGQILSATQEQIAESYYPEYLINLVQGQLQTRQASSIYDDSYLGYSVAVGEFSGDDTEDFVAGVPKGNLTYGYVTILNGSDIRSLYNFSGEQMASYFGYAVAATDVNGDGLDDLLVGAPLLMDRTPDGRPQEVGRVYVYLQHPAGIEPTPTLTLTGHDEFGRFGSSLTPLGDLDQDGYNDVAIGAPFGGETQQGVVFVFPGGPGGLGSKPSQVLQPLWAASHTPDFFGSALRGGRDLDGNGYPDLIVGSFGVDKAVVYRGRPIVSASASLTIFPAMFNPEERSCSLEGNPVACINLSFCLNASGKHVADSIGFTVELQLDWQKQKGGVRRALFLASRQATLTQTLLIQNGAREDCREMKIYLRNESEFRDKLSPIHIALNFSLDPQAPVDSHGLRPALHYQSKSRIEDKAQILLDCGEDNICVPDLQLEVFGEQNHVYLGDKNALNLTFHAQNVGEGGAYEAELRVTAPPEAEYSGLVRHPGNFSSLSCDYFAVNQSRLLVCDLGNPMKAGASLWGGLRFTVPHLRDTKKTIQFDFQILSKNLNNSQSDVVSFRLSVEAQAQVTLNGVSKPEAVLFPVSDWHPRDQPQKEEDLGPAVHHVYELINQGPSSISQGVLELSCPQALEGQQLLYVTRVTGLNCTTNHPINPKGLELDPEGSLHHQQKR
# Sequence (P08648 895-1049 limits assumed): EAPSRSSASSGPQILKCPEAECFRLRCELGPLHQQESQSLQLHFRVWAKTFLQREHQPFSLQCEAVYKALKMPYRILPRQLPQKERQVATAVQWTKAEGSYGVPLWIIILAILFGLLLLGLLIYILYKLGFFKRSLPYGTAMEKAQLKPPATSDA
# TEST_NAME: Antagonist activity at integrin alpha5beta1 in human K562 cells assessed as inhibition of cell adhesion
# Assay type: functional, cell-based
TEST_READOUT: log10 IC50 (log10 of the value in nM)
Recorded IC50 (log10, nM)

Please review the following examples before continuing.
O=C(N[C@@H](Cc1ccc(CCCCNc2ccccn2)cc1)C(=O)O)c1c(Cl)cccc1Cl
3.04
CN1CC(CCCOc2ccc(C[C@H](NC(=O)c3c(Cl)cccc3Cl)C(=O)O)cc2)C1
4.76

-- ask Read the entry O=C(N[C@@H](Cc1ccc(OCCc2ccc3c(n2)NCCO3)cc1)C(=O)O)c1c(Cl)cccc1Cl and write its reported log10 IC50.
-- reply 1.00

-- ask Read the entry NC(=O)NCCCOc1ccc(C[C@H](NC(=O)c2c(Cl)cccc2Cl)C(=O)O)cc1 and write its reported log10 IC50.
-- reply 4.00

-- ask Read the entry O=C(N[C@@H](Cc1ccc(OCCNc2nc3ccccc3[nH]2)cc1)C(=O)O)c1c(Cl)cccc1Cl and write its reported log10 IC50.
-- reply 2.20

-- ask Read the entry Cc1cc(C)c(C(=O)N[C@@H](CNC(=O)CO[C@@H]2C[C@@H](CNc3ccccn3)N(C(=O)OCc3ccccc3)C2)C(=O)O)c(C)c1 and write its reported log10 IC50.
-- reply 2.77

-- ask Read the entry O=C(N[C@@H](Cc1ccc(C#CCCNc2ccccn2)cc1)C(=O)O)c1c(Cl)cccc1Cl and write its reported log10 IC50.
-- reply 3.32

-- ask Read the entry Nc1cccc(CCOc2ccc(C[C@H](NC(=O)c3c(Cl)cccc3Cl)C(=O)O)cc2)n1 and write its reported log10 IC50.
-- reply 0.95

-- ask Read the entry CN(C)c1cccc(CCOc2ccc(C[C@H](NC(=O)c3c(Cl)cccc3Cl)C(=O)O)cc2)n1 and write its reported log10 IC50.
-- reply 3.43

-- ask Read the entry O=C(Cc1ccc2c(n1)NCCC2)Nc1ccc(C[C@H](NC(=O)c2c(Cl)cccc2Cl)C(=O)O)cc1 and write its reported log10 IC50.
-- reply 1.92

-- ask Read the entry O=C(NCc1ccc2c(n1)NCCC2)c1ccc(C[C@H](NC(=O)c2c(Cl)cccc2Cl)C(=O)O)cc1 and write its reported log10 IC50.
-- reply 2.08

====

# TARGET_DESC: Fibronectin receptor (Integrin alpha-5/beta-1 and alpha-V/beta-3) (Homo sapiens, UniProt P05106+P05556+P06756+P08648)
# TEST_NAME: Antagonist activity at integrin alphavbeta3alpha5beta1 in human A375M cells assessed as inhibition of cell adhesion to fibronectin in presence of Mg2+
pIC50: −log10 of the molar value.
Entry flag: Met if pIC50 reaches 6; Not met if it does not.

O=C(N[C@@H](Cc1ccc(OCCc2ccc3c(n2)NCCO3)cc1)C(=O)O)c1c(Cl)cccc1Cl
Met
Cc1cc(C)c(C(=O)N[C@@H](CNC(=O)CO[C@@H]2C[C@@H](CNc3ccccn3)N(C(=O)OCc3ccccc3)C2)C(=O)O)c(C)c1
Not met
CN1CCNc2nc(CCOc3ccc(C[C@H](NC(=O)c4c(Cl)cccc4Cl)C(=O)O)cc3)ccc21
Met
O=C(NCc1ccc2c(n1)NCCC2)c1ccc(C[C@H](NC(=O)c2c(Cl)cccc2Cl)C(=O)O)cc1
Not met

Now examine the next entry.
-- ask Determine whether this molecule has pIC50 no lower than 6: O=C(N[C@@H](Cc1ccc(OCCc2ccc3c(n2)NCCC3)cc1)C(=O)O)c1c(Cl)cccc1Cl
-- reply Met

====

# TARGET_DESC: Integrin alpha-5/beta-1 (Homo sapiens, UniProt P05556+P08648)
# TEST_NAME: Binding affinity to integrin alpha5beta1
# Assay type: protein-complex assay
pIC50: −log10 of the molar value.
Entry flag: T if pIC50 reaches 7; F if it does not.

These recorded examples may help you get a feel for the data.
O=C(Cc1ccc2c(n1)NCCC2)Nc1ccc(C[C@H](NC(=O)c2c(Cl)cccc2Cl)C(=O)O)cc1
T
CN1CCNc2nc(CCOc3ccc(C[C@H](NC(=O)c4c(Cl)cccc4Cl)C(=O)O)cc3)ccc21
T

-- ask Determine whether this compound has pIC50 no lower than 7: O=C(N[C@@H](Cc1ccc(OCCNc2nc3ccccc3[nH]2)cc1)C(=O)O)c1c(Cl)cccc1Cl
-- reply T

====

# TARGET_DESC: Integrin alpha-5/beta-1 (Homo sapiens, UniProt P05556+P08648)
# TEST_NAME: Antagonist activity at integrin alpha5beta1 in human K562 cells assessed as inhibition of cell adhesion in presence of 630 uM human serum albumin
# Assay type: functional, cell-based
This section presents compounds with their documented IC50 values.
Use nM as the unit, but write only the number.

O=C(N[C@@H](Cc1ccc(CCCc2ccc3c(n2)NCCC3)cc1)C(=O)O)c1c(Cl)cccc1Cl
450

Attention now shifts to the item below.
-- ask Read the entry O=C(N[C@@H](Cc1ccc(OCCc2ccc3c(n2)NCCC3)cc1)C(=O)O)c1c(Cl)cccc1Cl and write its reported IC50.
-- reply 29

====

# TEST_NAME: Fraction unbound in rat plasma
# Assay type: ADME, cell-free
This section presents compounds with their documented fraction unbound values.
Form rule: numeric answer, no unit written next to it.

CN1CCNc2nc(CCOc3ccc(C[C@H](NC(=O)c4c(Cl)cccc4Cl)C(=O)O)cc3)ccc21
0.015
O=C(N[C@@H](Cc1ccc(CCCc2ccc3c(n2)NCCC3)cc1)C(=O)O)c1c(Cl)cccc1Cl
0.006

Attention now shifts to the item below.
-- ask Read the entry O=C(N[C@@H](Cc1ccc(OCCc2ccc3c(n2)NCCC3)cc1)C(=O)O)c1c(Cl)cccc1Cl and write its reported fraction unbound.
-- reply 0.007

====

# TARGET_DESC: Integrin alpha-V/beta-3 (Homo sapiens, UniProt P05106+P06756)
# Sequence (P05106 27-788 limits assumed): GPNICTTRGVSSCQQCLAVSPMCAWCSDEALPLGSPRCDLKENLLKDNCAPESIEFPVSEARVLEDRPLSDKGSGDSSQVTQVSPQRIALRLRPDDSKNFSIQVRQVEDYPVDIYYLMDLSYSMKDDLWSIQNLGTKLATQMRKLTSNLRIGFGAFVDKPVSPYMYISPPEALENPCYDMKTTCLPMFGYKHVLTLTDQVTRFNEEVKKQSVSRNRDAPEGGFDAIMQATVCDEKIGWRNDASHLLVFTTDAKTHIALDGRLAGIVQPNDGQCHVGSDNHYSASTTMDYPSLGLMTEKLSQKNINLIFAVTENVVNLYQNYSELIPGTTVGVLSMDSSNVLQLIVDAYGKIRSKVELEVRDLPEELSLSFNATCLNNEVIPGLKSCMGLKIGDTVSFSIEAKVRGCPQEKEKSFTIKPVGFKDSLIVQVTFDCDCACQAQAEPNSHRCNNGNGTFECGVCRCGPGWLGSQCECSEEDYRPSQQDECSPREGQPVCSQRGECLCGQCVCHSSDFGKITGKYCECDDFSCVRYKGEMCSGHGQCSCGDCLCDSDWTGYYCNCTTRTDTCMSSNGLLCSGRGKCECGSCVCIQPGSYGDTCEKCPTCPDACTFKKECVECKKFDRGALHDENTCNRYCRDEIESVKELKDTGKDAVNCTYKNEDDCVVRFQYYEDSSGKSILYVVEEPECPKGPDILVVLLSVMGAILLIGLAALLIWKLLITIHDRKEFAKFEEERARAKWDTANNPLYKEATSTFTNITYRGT
# Sequence (P06756 31-889 limits assumed): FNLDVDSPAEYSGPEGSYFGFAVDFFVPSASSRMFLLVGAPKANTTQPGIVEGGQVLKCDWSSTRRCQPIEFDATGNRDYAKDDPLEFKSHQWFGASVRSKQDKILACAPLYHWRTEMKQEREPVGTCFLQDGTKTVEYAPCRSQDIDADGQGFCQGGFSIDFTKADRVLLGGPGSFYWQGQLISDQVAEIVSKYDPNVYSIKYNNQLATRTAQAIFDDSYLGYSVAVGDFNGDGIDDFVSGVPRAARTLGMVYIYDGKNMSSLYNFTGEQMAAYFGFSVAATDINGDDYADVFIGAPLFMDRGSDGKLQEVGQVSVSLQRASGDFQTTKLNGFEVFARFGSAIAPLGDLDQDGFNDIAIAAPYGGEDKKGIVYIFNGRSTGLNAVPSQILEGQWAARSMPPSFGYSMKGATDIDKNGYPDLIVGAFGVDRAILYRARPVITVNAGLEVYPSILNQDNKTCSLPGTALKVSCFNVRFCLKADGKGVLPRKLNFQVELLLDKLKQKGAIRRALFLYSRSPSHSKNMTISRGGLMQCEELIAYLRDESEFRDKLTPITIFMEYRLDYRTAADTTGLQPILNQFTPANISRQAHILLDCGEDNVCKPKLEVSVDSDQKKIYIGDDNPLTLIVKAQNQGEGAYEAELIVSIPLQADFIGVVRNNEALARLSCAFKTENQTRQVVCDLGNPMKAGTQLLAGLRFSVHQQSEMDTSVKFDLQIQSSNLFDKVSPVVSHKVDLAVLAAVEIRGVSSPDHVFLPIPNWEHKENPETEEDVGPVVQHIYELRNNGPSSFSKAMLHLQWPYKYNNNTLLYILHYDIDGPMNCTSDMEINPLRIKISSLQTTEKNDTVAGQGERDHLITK
# Sequence (P06756 891-1048 limits assumed): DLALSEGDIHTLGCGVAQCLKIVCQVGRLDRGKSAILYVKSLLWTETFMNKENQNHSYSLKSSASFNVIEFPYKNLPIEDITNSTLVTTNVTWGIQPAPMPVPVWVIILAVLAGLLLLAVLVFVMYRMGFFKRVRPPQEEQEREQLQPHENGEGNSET
# TEST_NAME: Antagonist activity at integrin alphavbeta3 in human A375M cells assessed as inhibition of cell adhesion to fibrinogen in presence of Mg2+
pIC50: −log10 of the molar value.
Entry flag: Yes if pIC50 reaches 8; No if it does not.

These recorded examples may help you get a feel for the data.
O=C(NCc1ccc2c(n1)NCCC2)c1ccc(C[C@H](NC(=O)c2c(Cl)cccc2Cl)C(=O)O)cc1
No
O=C(N[C@@H](Cc1ccc(OCCc2ccc3c(n2)NCCC3)cc1)C(=O)O)c1c(Cl)cccc1Cl
Yes
Cc1cc(C)c(C(=O)N[C@@H](CNC(=O)CO[C@@H]2C[C@@H](CNc3ccccn3)N(C(=O)OCc3ccccc3)C2)C(=O)O)c(C)c1
No

-- ask Determine whether this compound has pIC50 no lower than 8: O=C(N[C@@H](Cc1ccc(OCCCNc2ccccn2)cc1)C(=O)O)c1c(Cl)cccc1Cl
-- reply No

-- ask Determine whether this compound has pIC50 no lower than 8: O=C(Cc1ccc2c(n1)NCCC2)Nc1ccc(C[C@H](NC(=O)c2c(Cl)cccc2Cl)C(=O)O)cc1
-- reply No

-- ask Determine whether this compound has pIC50 no lower than 8: CN1CCNc2nc(CCOc3ccc(C[C@H](NC(=O)c4c(Cl)cccc4Cl)C(=O)O)cc3)ccc21
-- reply No

====

# TEST_NAME: Dissociation constant, pKa of the compound
# Assay type: physicochemical
TEST_READOUT: pKa

CN1CCNc2nc(CCOc3ccc(C[C@H](NC(=O)c4c(Cl)cccc4Cl)C(=O)O)cc3)ccc21
7.1
O=C(N[C@@H](Cc1ccc(OCCNc2nc3ccccc3s2)cc1)C(=O)O)c1c(Cl)cccc1Cl
4.3
O=C(N[C@@H](Cc1ccc(OCCNc2nc3ccccc3[nH]2)cc1)C(=O)O)c1c(Cl)cccc1Cl
7.2
O=C(N[C@@H](Cc1ccc(OCCc2cccc(NC3CCCC3)n2)cc1)C(=O)O)c1c(Cl)cccc1Cl
6.8
O=C(N[C@@H](Cc1ccc(OCCc2ccc3c(n2)NCCC3)cc1)C(=O)O)c1c(Cl)cccc1Cl
7.6
O=C(N[C@@H](Cc1ccc(OCCc2ccc3c(n2)NCCO3)cc1)C(=O)O)c1c(Cl)cccc1Cl
6

-- ask Read the entry CNc1cccc(CCCc2ccc(C[C@H](NC(=O)c3c(Cl)cccc3Cl)C(=O)O)cc2)n1 and write its reported pKa.
-- reply 7.6

-- ask Read the entry CNc1cccc(CCOc2ccc(C[C@H](NC(=O)c3c(Cl)cccc3Cl)C(=O)O)cc2)n1 and write its reported pKa.
-- reply 7

====

# TARGET_DESC: Integrin alpha-5/beta-1 (Homo sapiens, UniProt P05556+P08648)
# TEST_NAME: Antagonist activity at integrin alpha5beta1 in human K562 cells assessed as inhibition of cell adhesion
# Format: functional, cell-based
This section presents compounds with their documented pIC50 values.
Lab note — pIC50 values are minus log10 of concentrations in M.

O=C(N[C@@H](Cc1ccc(OCCCCNc2ccccn2)cc1)C(=O)O)c1c(Cl)cccc1Cl
6.15
O=C(N[C@@H](Cc1ccc(OCCNc2nc3ccccc3s2)cc1)C(=O)O)c1c(Cl)cccc1Cl
5.62
CNc1cccc(COCc2ccc(C[C@H](NC(=O)c3c(Cl)cccc3Cl)C(=O)O)cc2)n1
5.85

Attention now shifts to the item below.
-- ask Read the entry O=C(N[C@@H](Cc1ccc(OCCc2cccc(NC3CCCC3)n2)cc1)C(=O)O)c1c(Cl)cccc1Cl and write its reported pIC50.
-- reply 6.49
